Origin of values: patent US20230310428A1

molecular target: various mutants of kinase EGFR (BaF3 cell lines stably transfected with kinase) (Homo sapiens, UniProt P00533, T790M/C797S, form not given); construct: other: BaF3 cells stably transfected with EGFR Δ19Del/T790M/C797S; MTS, 48; other: BaF3 cell line stably transfected with EGFR Δ19Del/T790M/C7; assay: Growth inhibitory activity of compounds on BaF3 cell lines stably transfected with kinase (MTS, 48 h); assay type: cell-based; conditions: BaF3 cells stably transfected with EGFR Δ19Del/T790M/C797S, read-out: IC50, growth inhibition, Δ19Del/T790M/C797S
Sequence (P00533 with tags, fused parts or gaps DEL746-750/T790M/C797S, form open): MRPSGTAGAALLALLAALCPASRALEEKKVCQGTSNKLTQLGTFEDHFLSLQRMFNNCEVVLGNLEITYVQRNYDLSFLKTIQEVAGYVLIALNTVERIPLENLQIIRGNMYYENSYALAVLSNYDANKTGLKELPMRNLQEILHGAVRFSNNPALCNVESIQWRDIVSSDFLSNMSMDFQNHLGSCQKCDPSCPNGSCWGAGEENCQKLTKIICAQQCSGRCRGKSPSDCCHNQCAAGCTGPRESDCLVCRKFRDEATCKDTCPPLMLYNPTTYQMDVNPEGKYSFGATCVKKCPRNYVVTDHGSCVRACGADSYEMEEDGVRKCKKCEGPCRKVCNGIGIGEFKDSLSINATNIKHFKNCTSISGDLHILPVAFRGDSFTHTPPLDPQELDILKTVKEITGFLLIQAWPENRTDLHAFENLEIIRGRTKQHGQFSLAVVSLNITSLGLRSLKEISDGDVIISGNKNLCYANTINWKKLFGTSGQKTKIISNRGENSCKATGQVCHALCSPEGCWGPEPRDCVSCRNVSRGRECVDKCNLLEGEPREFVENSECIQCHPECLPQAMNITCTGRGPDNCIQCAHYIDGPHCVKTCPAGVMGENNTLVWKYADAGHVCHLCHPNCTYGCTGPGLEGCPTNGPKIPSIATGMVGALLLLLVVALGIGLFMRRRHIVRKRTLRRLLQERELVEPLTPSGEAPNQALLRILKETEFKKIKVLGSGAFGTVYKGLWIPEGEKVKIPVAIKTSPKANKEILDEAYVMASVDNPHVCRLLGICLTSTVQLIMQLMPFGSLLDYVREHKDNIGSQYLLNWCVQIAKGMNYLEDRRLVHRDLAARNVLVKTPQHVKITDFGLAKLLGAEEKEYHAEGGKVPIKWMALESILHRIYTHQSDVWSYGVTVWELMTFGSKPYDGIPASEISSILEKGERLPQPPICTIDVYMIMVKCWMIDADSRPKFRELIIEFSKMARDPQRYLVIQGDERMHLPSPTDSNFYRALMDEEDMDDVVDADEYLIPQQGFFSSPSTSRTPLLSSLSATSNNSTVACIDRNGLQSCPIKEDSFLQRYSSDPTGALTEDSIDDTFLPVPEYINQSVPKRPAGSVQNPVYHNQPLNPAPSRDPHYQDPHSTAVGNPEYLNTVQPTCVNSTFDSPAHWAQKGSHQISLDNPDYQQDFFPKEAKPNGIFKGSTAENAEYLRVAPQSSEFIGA
Property: IC50

Worked examples, 6 molecules total:
{"Molecule": "CCc1cc(Nc2ncc(Cl)c(Nc3ccc4nccnc4c3N(C3CC3)S(C)(=O)=O)n2)c(OC)cc1N1CCC(N(C)C)C1 (stereo not drawn)", "Property": "IC50", "Result": "≤ 50 nM"}
{"Molecule": "CCc1cc(Nc2ncc(Br)c(Nc3ccc4nccnc4c3N(C)S(=O)(=O)C(F)(F)F)n2)c(OC)cc1N1CCC(N(C)C)C1 (stereo not drawn)", "Property": "IC50", "Result": "≤ 50 nM"}
{"Molecule": "COc1cc(N2CCC(N3CCN(C)CC3)CC2)c(C)cc1Nc1ncc(C)c(Nc2ccc3nccnc3c2N(C)S(C)(=O)=O)n1", "Property": "IC50", "Result": "≤ 50 nM"}
{"Molecule": "CCN(c1c(Nc2nc(Nc3cc(C)c(N4CCN(C)CC4)cc3OC)ncc2Cl)ccc2nccnc12)S(C)(=O)=O", "Property": "IC50", "Result": "≤ 50 nM"}
{"Molecule": "CCc1cc(Nc2ncc(Br)c(Nc3ccc4nccnc4c3N(C3CC3)S(C)(=O)=O)n2)c(OC)cc1N1CCC(N(C)C)C1 (stereo not drawn)", "Property": "IC50", "Result": "≤ 50 nM"}
{"Molecule": "CCN(c1c(Nc2nc(Nc3cc(CC4CC4)c(N4CCC(N5CCN(C)CC5)CC4)cc3OC)ncc2Br)ccc2nccnc12)S(C)(=O)=O", "Property": "IC50", "Result": "≤ 50 nM"}

[Q] Please look at this molecule and report its IC50: COc1cc(N2CCC(N3CCN(C)CC3)CC2)ccc1Nc1ncc(Cl)c(Nc2ccc3nccnc3c2N(C)S(=O)(=O)C(F)(F)F)n1
[A] 50 to 500 nM

[Q] Please look at this molecule and report its IC50: CN(c1c(Nc2nc(Nc3cccc(N4CCC(O)CC4)c3)ncc2Br)ccc2nccnc12)S(C)(=O)=O
[A] 50 to 500 nM

[Q] Please look at this molecule and report its IC50: COc1cc(N2CCC(N3CCN(C)CC3)CC2)c(C)cc1Nc1ncc(F)c(Nc2ccc3nccnc3c2N(C)S(=O)(=O)C2CC2)n1
[A] ≤ 50 nM

====

target: various mutants of kinase EGFR (BaF3 cell lines stably transfected with kinase) (Homo sapiens, UniProt P00533); construct: other: BaF3 cells stably transfected with EGFR Δ19Del; MTS, 48 h; other: BaF3 cell line stably transfected with EGFR Δ19Del; test: Growth inhibitory activity of compounds on BaF3 cell lines stably transfected with kinase (MTS, 48 h); type: cell-based; details: BaF3 cell line stably transfected with EGFR Δ19Del, read-out: Δ19Del growth inhibitory activity IC50
Sequence (P00533 with tags, fused parts or gaps DEL746-750): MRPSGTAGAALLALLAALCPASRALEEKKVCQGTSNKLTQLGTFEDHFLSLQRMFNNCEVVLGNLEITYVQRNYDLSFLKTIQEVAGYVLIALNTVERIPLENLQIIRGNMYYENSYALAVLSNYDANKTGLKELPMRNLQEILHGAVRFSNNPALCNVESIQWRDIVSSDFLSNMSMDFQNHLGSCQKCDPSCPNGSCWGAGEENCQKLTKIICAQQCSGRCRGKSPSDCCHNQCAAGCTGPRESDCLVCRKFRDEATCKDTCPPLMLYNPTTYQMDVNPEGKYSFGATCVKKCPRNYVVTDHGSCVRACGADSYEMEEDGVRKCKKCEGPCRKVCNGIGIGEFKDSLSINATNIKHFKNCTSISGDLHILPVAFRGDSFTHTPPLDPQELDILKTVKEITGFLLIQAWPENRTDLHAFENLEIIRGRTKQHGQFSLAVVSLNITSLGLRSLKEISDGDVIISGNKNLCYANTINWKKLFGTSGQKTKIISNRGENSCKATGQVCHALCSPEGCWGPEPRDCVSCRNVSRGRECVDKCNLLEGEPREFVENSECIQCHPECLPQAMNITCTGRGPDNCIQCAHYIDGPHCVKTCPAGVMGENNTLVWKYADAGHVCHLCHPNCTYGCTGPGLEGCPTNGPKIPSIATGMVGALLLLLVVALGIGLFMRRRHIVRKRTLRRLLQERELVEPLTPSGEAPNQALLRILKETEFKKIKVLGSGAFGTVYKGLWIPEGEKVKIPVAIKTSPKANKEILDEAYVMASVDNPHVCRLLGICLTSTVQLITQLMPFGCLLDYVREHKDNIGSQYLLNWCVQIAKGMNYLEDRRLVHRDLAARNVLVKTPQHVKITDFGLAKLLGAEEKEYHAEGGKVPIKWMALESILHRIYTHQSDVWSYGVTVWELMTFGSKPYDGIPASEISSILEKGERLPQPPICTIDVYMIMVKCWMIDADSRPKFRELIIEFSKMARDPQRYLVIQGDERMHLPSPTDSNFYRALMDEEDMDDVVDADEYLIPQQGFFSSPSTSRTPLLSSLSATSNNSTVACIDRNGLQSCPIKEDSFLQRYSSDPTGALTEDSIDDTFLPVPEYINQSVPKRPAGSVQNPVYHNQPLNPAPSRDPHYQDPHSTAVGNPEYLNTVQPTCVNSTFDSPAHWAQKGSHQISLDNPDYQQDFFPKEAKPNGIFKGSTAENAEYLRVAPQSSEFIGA
Quick list: IC50 per entry.

{"Compound": "COc1nc(N2CCC(N3CCN(C)CC3)CC2)ccc1Nc1nc(Nc2ccc3nccnc3c2N(C)S(C)(=O)=O)c2[nH]ccc2n1 [II-1-27]", "IC50": "500 to 2500 nM"}
{"Compound": "CCc1cc(Nc2nc(Nc3ccc4nccnc4c3N(C)S(C)(=O)=O)c3sccc3n2)c(OC)cc1N1CCN(C)CC1 [II-1-15]", "IC50": "500 to 2500 nM"}
{"Compound": "CCc1cc(Nc2nc(Nc3ccc4nccnc4c3N(C)S(C)(=O)=O)c3cc[nH]c3n2)c(OC)cc1N1CCC(N(C)C)C1 (centres unmarked) [II-2-17]", "IC50": "500 to 2500 nM"}
{"Compound": "CCc1cc(Nc2nc(Nc3ccc4nccnc4c3N(C)S(C)(=O)=O)c3[nH]ccc3n2)c(OC)cc1N1CCC(N(C)C)C1 (centres unmarked) [II-1-36]", "IC50": "500 to 2500 nM"}
{"Compound": "CN1CCN(C2CCN(c3c(F)cc(Nc4ncc(Cl)c(Nc5ccc6nccnc6c5N(C)S(C)(=O)=O)n4)cc3F)CC2)CC1 [Compound I-357]", "IC50": "50 to 500 nM"}

[Q] Please look at this compound and report its IC50: COc1cc(N2CCC(N3CCN(C)CC3)CC2)ccc1Nc1nc(Nc2ccc3nccnc3c2N(C)S(C)(=O)=O)c2sccc2n1 [II-1-1]
[A] 500 to 2500 nM

====

Quick list: pIC50 per entry.
Target: various mutants of kinase EGFR (BaF3 cell lines stably transfected with kinase) (Homo sapiens, UniProt P00533, L858R/T790M)
Construct: expressed in transfected cells; host or cells: BaF3
Sequence (P00533 25-1210 T790M/L858R): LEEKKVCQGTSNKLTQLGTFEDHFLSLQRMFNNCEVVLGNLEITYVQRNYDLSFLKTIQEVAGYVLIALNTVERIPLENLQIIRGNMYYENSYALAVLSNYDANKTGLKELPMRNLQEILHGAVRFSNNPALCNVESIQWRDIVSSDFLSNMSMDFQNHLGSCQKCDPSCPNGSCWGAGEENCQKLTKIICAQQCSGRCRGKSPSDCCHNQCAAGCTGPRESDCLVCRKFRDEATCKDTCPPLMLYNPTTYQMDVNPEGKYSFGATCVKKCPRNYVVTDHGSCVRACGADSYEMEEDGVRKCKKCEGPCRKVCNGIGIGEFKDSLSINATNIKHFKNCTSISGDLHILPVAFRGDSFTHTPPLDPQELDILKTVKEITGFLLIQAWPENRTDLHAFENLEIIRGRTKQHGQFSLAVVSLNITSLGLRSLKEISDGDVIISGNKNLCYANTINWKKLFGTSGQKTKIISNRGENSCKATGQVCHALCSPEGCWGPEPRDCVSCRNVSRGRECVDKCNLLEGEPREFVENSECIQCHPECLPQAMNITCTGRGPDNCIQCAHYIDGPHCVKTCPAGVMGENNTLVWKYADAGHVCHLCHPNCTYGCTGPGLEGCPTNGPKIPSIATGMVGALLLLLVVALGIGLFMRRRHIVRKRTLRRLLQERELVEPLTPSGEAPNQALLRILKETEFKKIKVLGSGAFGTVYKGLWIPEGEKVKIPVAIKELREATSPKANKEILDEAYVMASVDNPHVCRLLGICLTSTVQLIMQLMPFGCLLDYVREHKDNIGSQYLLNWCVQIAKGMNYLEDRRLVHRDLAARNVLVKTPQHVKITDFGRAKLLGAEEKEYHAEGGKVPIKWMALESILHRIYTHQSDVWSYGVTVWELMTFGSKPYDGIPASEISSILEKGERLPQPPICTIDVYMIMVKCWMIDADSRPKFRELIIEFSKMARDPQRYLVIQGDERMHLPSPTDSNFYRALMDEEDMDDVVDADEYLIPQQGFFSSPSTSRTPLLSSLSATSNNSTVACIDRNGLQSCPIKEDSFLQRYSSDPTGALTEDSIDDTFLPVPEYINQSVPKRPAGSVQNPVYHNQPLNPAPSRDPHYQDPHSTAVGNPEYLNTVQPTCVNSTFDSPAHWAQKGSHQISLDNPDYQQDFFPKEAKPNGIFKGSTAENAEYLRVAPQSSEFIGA
Assay: Growth inhibitory activity of compounds on BaF3 cell lines stably transfected with kinase (MTS, 48 h)
Assay type: cell-based
Conditions: BaF3 cell line stably transfected with EGFR L858R/T790M, read-out: L858R/ T790M growth inhibitory activity IC50
Protocol: The activity of compounds against various mutants of kinase EGFR was evaluated by their effect of inhibiting growth of BaF3 cell lines stably transfected with kinase. The specific test method was given as follows: […] 3) Compound test: cells were incubated into a 96-well culture plate, the volume of cytosol was 90 µL, and then 10 µL of the compound at each gradient concentration was added. […] OD values at 490 nm were measured by a microplate reader (VARIOSKAN FLASH, Thermo). […]
pIC50: −log10 of the molar value.

Worked examples, 3 compounds total:
{"Line notation": "CCc1cnc(Nc2ccc(N3CCC(N4CCN(C)CC4)CC3)c(F)c2F)nc1Nc1ccc2nccnc2c1N(C)S(C)(=O)=O", "pIC50": "6.30 to 7.30"}
{"Line notation": "CCc1cc(Nc2ncc(CC)c(Nc3ccc4nccnc4c3N(C)S(C)(=O)=O)n2)c(OC(F)(F)F)cc1N1CCC(N2CCN(C)CC2)CC1", "pIC50": "6.30 to 7.30"}
{"Line notation": "CCc1cc(Nc2ncc(CC)c(Nc3ccc4nccnc4c3N(C)S(C)(=O)=O)n2)c(OC)cc1C(=O)N1CCC(N2CCN(C)CC2)CC1", "pIC50": "6.30 to 7.30"}

[Q] Please look at this compound and report its pIC50: COc1ccc(N2CCC(O)CC2)cc1Nc1nc(Nc2ccc3nccnc3c2N(C)S(C)(=O)=O)c2cc[nH]c2n1
[A] 6.30 to 7.30

[Q] Please look at this compound and report its pIC50: COc1cc(N2CCC(N3CCN(C)CC3)CC2)c(C)cc1Nc1nc(Nc2ccc3nccnc3c2N(C)S(C)(=O)=O)c2cc[nH]c2n1
[A] ≥ 7.30

[Q] Please look at this compound and report its pIC50: COc1cc(N2CCC(N3CCN(C)CC3)CC2)c(Cc2ccccc2)cc1Nc1nc(Nc2ccc3nccnc3c2N(C)S(C)(=O)=O)c2occc2n1
[A] 5.60 to 6.30

====

Target: various mutants of kinase EGFR (BaF3 cell lines stably transfected with kinase) (Homo sapiens, UniProt P00533, L858R)
Construct: expressed in transfected cells; host or cells: BaF3
Sequence (P00533 25-1210 L858R): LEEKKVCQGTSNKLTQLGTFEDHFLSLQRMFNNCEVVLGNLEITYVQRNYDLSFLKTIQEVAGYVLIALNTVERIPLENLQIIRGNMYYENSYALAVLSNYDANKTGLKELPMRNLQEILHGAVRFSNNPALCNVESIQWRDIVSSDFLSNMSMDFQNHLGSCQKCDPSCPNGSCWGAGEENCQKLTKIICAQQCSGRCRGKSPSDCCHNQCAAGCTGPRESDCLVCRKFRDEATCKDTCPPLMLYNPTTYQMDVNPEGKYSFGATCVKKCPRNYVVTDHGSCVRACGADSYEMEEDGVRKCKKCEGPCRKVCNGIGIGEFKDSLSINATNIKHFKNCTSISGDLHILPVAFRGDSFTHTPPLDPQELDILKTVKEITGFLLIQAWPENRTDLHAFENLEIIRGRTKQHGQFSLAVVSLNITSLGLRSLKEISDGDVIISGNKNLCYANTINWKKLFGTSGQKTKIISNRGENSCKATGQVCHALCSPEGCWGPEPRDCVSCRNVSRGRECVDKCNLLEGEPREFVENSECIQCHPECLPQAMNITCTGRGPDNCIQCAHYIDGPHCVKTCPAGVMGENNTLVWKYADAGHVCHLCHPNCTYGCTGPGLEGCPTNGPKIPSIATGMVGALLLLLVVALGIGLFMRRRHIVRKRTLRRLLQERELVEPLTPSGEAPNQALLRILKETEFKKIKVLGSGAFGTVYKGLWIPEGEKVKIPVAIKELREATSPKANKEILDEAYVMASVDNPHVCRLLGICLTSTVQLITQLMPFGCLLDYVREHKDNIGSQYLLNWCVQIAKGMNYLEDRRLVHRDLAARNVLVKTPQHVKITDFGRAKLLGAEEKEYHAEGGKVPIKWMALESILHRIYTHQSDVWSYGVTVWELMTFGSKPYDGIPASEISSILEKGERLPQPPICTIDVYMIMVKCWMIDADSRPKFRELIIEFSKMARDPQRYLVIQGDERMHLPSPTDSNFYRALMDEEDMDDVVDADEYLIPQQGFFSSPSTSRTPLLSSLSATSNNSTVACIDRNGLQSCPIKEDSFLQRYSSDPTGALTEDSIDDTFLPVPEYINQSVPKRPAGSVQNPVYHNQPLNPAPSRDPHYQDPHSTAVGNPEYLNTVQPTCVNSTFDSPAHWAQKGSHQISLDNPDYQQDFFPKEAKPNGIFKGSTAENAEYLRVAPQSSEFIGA
Assay: Growth inhibitory activity of compounds on BaF3 cell lines stably transfected with kinase (MTS, 48 h)
Assay type: cell-based
Conditions: BaF3 cell line stably transfected with EGFR L858R, read-out: L858R growth inhibitory activity IC50
Description: The activity of compounds against various mutants of kinase EGFR was evaluated by their effect of inhibiting growth of BaF3 cell lines stably transfected with kinase. The specific test method was given as follows: […] 3) Compound test: cells were incubated into a 96-well culture plate, the volume of cytosol was 90 µL, and then 10 µL of the compound at each gradient concentration was added. […] OD values at 490 nm were measured by a microplate reader (VARIOSKAN FLASH, Thermo). […]
Quick list: IC50 per entry.

[Q] Please look at this compound and report its IC50: COc1nc(N2CCC(N3CCN(C)CC3)CC2)ccc1Nc1ncc(Br)c(Nc2ccc3nccnc3c2N(C2CC2)S(C)(=O)=O)n1
[A] 50 to 500 nM

====

molecular target: various mutants of kinase EGFR (BaF3 cell lines stably transfected with kinase) (Homo sapiens, UniProt P00533, T790M/C797S, form not given); construct: other: BaF3 cells stably transfected with EGFR Δ19Del/T790M/C797S; MTS, 48; other: BaF3 cell line stably transfected with EGFR Δ19Del/T790M/C7; experiment: Growth inhibitory activity of compounds on BaF3 cell lines stably transfected with kinase (MTS, 48 h); format: cell-based; conditions: BaF3 cell line stably transfected with EGFR Δ19Del/T790M/C797S, read-out: Δ19Del/T790M/ C797S growth inhibitory activity IC50
Property: IC50

Worked examples, 3 compounds total:
{"Compound": "CCc1cnc(Nc2cc(CC)c(N3CCC(N4CCN(C)CC4)CC3)nc2OC)nc1Nc1ccc2nccnc2c1N(C)S(C)(=O)=O [Compound I-320]", "IC50": "≤ 50 nM"}
{"Compound": "CCc1cc(Nc2ncc(Cl)c(Nc3ccc4nccnc4c3N(C)S(C)(=O)=O)n2)c(OC)cc1C(=O)N1CCC(N2CCN(C)CC2)CC1 [Compound I-358]", "IC50": "50 to 500 nM"}
{"Compound": "CN1CCN(C2CCN(c3ccc(Nc4nc(Nc5ccc6nccnc6c5N(C)S(C)(=O)=O)c5occc5n4)c(OC(F)(F)F)c3)CC2)CC1 [II-1-40]", "IC50": "500 to 2500 nM"}

[Q] Please look at this compound and report its IC50: CN1CCN(C2CCN(c3c(F)cc(Nc4ncc(Br)c(Nc5ccc6nccnc6c5N(C)S(C)(=O)=O)n4)cc3F)CC2)CC1 [Compound I-354]
[A] ≤ 50 nM
